Recorded values, source paper doi:10.1101/2024.09.22.614354.

# assay system: T1, Rb^P E554K (human, UniProt P06400 380-788, E554K)
# T1 sequence: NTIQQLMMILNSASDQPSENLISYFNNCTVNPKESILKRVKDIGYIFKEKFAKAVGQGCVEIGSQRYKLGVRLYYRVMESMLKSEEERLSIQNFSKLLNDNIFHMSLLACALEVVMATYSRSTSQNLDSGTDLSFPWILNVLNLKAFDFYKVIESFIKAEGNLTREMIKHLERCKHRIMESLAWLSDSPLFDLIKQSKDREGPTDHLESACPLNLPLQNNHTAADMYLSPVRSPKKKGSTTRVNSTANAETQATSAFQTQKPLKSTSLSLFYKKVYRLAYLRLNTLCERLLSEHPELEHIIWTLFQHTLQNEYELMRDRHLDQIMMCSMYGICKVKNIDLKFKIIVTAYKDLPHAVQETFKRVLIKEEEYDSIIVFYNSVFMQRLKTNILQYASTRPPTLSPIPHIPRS
# procedure details: fluorescence polarisation
readout label: Kd (µM)
Report as a plain number; the unit µM is understood.

Lookup: Identify the reported Kd for the following entry. DLYCYEQLN (not fully specified; TMR fluorescent label (TMR-E7^LxCxE)) [TMR-E7^LxCxE (LxCxE peptide of the E7 oncoprotein from HPV, TMR-labeled)]
Found: 0.024
